Please respond with reported GI50 for every item in the list.
System: HOP-62
Experiment: NCI tumour cell line growth inhibition, 48 h
The source made the active and inactive calls. No stated cut-off is given here; in the data, active = GI50 up to about 1.1 µM and inactive = higher.

Here is how some compounds turned out for GI50.
> print(dat)
                                   compound  target           meas.value
1  O=C(C(=O)n1ncc(Cl)c(Cl)c1=O)n1ncc(Cl)c(Cl)c1=O  HOP-62  > 100 µM (inactive)
2    COc1ccc(C=C2C(=O)NC(=S)NC2=O)c2ccccc12  HOP-62   30.4 µM (inactive)
3  CC1(C2(C)OC(=O)c3ccccc32)OC(=O)c2ccccc21 (stereo not drawn)  HOP-62  > 100 µM (inactive)
4  Cn1cnc([N+](=O)[O-])c1[Se]c1nc(N)nc2c1ncn2C1OC(CO)C(O)C1O (stereo not drawn)  HOP-62  > 100 µM (inactive)
5  O=C=NCCCCCCN1C(=O)N2C(c3ccccc3)N(CCCCCCN=C=O)C(=O)N2C1c1ccccc1 (stereo not drawn)  HOP-62  > 100 µM (inactive)

Could you tell me GI50 for each of these compounds? They are listed below.
1. N#Cc1c(-c2ccccc2)c(-c2ccccc2)cc2c(=O)c3ccc(Cl)cc3[nH]c12
2. COC(=O)c1ccccc1N(C(=O)c1ccccc1)c1ccccc1C
3. COC(=O)NCCc1n[nH]c2c1C(=O)C=C(Nc1ccccc1)C2=O
4. NC(=O)/N=C1/CCC2C3CCCC2C13
5. CCOC(=O)c1ccc(/N=C/c2ccc(N(CCC#N)S(=O)(=O)c3ccccc3)cc2C)cc1
6. O=[As](O)(O)c1ccc(/N=N/c2ccc(O)cc2)cc1
7. CC(=O)N(C(C)=O)n1c(Cc2ccc(Cl)cc2)nn(C(C)=O)c1=O

Outgoing:
1. > 100 µM (inactive)
2. > 100 µM (inactive)
3. 68.2 µM (inactive)
4. > 100 µM (inactive)
5. 31 µM (inactive)
6. > 100 µM (inactive)
7. > 100 µM (inactive)

Required: GI50, one value per compound below.
1. CCCCCCCCC/C=C1\CCC(CN2CCOCC2)C1=O (stereo not drawn)
2. CCCCCCCC(=O)OCC1OC(OC)C(NC(=O)N(CCCl)N=O)C(O)C1O (stereo not drawn)
3. Nc1ccccc1C(=O)N/N=C1\C(=O)Nc2ccccc21
4. O=C(/C=C/c1ccc(Cl)c(Cl)c1)c1ccc2ccccc2c1
5. Cc1n[nH]c(CC#N)n1
6. CC1CC(C[N+](=O)[O-])CC2(C1)OCCO2 (stereo not drawn)
7. O=c1c2ncn(COCCCl)c2n(-c2ccccc2)c(=S)n1-c1ccccc1

Outgoing:
["13.6 µM (inactive)", "4.27 µM (inactive)", "43.6 µM (inactive)", "> 100 µM (inactive)", "> 100 µM (inactive)", "> 100 µM (inactive)", "> 100 µM (inactive)"]

----------
System: PC-3
Experiment: NCI tumour cell line growth inhibition, 48 h
The source made the active and inactive calls. Rule as the data show it: active = GI50 up to about 1.1 µM and inactive = higher.
For each of the compounds below, state its GI50.

See these solved cases before continuing.
compound	target	meas.value
CN1CCC23c4c5ccc(Oc6nnnn6-c6ccccc6)c4OC2c2[nH]c4ccccc4c2CC3(O)C1C5 (configuration not stated)	PC-3	3.68 µM (inactive)
Nc1ccccc1C(=O)N/N=C1\C(=O)Nc2ccccc21	PC-3	> 100 µM (inactive)

For every record below, what is its GI50?
1. CN1C(=O)C(C(=O)Nc2ccccn2)C2C[C@@]1(C)Oc1ccccc12 (some centres not stated)
2. Cn1ncc2c(Cl)ncnc21
3. CC1=C(Nc2c(C)cc(O)cc2O)C(=O)C=c2oc3c(c21)C(C)=C(Nc1c(C)cc(O)cc1O)C(=O)C=3
4. CCOP(=O)(OCC)/C(=C/NC(=S)c1ccncc1)C(=O)OC
5. O=c1[nH]nc(Cc2ccc([N+](=O)[O-])cc2)n1CCO

Outgoing:
1. > 100 µM (inactive)
2. > 100 µM (inactive)
3. 24.2 µM (inactive)
4. > 100 µM (inactive)
5. > 100 µM (inactive)

Batch lookup, GI50 per entry.
1. CN1CN(c2ccccc2)C2(CCN(CCCSc3ccccc3NC(=O)/C=C/c3ccccc3)CC2)C1=O
2. CC(C)C1=CC23CCC4C(C)(C(=O)O)CCCC4(C)C2CC1C(C(=O)O)C3C(=O)O (configuration not stated)
3. CC(NC(=O)C1(N)CCCC1)C(=O)O (configuration not stated)
4. COc1cc(/C=C2\N=C(c3ccccc3)N(C3Nc4cc5c(cc4S3)NC(N3C(=O)/C(=C/c4cc(OC)c(OC)c(OC)c4)N=C3c3ccccc3)S5)C2=O)cc(OC)c1OC (configuration not stated)
5. N/C(=N\N/C=C1\C=Nc2cc(C(F)(F)F)ccc2C1=O)NO
6. COc1ccc2cc3c4cc5c(cc4cc[n+]3cc2c1OC)OCO5

Outgoing:
1. 5.45 µM (inactive)
2. > 100 µM (inactive)
3. > 100 µM (inactive)
4. 82.6 µM (inactive)
5. > 10 µM (inactive)
6. 14.2 µM (inactive)

----------
Could you please report measured GI50 for the items listed next?
Tested on: OVCAR-4
Assay: NCI tumour cell line growth inhibition, 48 h
The source made the active and inactive calls. Cut-off read from the data, not from the text of the source: active = GI50 up to about 1.1 µM and inactive = higher.

Guide cases for GI50, answers given:
compound	meas.value
COc1cc(C)cc2c1C(=O)C(Br)=CC2=O	2.75 µM (inactive)
COc1ccc2c(c1)N=C1CSC(c3c(Cl)cccc3[N+](=O)[O-])N1C2 (stereo unspecified)	56.6 µM (inactive)
COc1cc2c(cc1C)[n+]([O-])c(C)c(C(=O)C/C(=N/NC(=O)C[N+](C)(C)C)C(=O)Nc1cccc(Cl)c1C)[n+]2[O-]	> 100 µM (inactive)

Quick request: GI50 for each listed item, please.
1. FC(F)(F)c1ccc2nc(Sc3ccccn3)cnc2c1
2. O=c1c2ncn(COCCCl)c2n(-c2ccccc2)c(=S)n1-c1ccccc1
3. Brc1cccc(C2ON=C(c3ccccc3)N2C23CC4CC(CC(C4)C2)C3)c1 (stereo unspecified)
4. O=C(CC1(O)C(=O)Nc2c(Cl)ccc(Cl)c21)c1ccco1 (stereo unspecified)
5. CC(C)NC(=O)OCc1c(COC(=O)NC(C)C)c(-c2ccc[n+](COC(=O)C3CCCCC3)c2)n2c1CCC2
6. Cc1c(N/C=C(\C#N)C(=O)c2ccc(Cl)cc2)c(=O)n(-c2ccccc2)n1C
7. CCON=C1C(C)(C)C(C)(C)C(C)(C)C1(C)C
8. COc1ccc(C(=O)C(c2ccc(OCc3ccccc3)cc2)c2ccc(OCc3ccccc3)cc2)cc1

Outgoing:
1. 79.8 µM (inactive)
2. > 100 µM (inactive)
3. > 10 µM (inactive)
4. 7.06 µM (inactive)
5. 40.6 µM (inactive)
6. > 100 µM (inactive)
7. > 100 µM (inactive)
8. > 100 µM (inactive)

Would you mind listing GI50 for each of the following compounds?
1. COC(=O)c1ccc(C=C(C#N)C#N)cc1
2. C[C@H]1S[C@@H](c2ccc(Cl)cc2Cl)N(NC(=O)c2ccncc2)C1=O
3. CC(=O)NNc1nc(C)c(C(/C=C/c2ccccc2O)=N/N=C(N)N)s1
4. C[N+](C)(C)CC(=O)NC(=O)N/N=C\C(CC#N)CN(Cc1ccccc1)Cc1ccccc1 (stereo unspecified)
5. COC(=O)/C=C\C(C#N)(C#N)/N=C/c1sccc1C
6. C[N+](C)(C)CCc1ccccc1
7. O=C(N/C=C1\C(=O)Oc2ccccc2C1=O)Nc1ccccc1
8. CCCCCCCC(=O)NC(C)(C)C(=O)NCC(=O)NC(CC(C)C)C(=O)NC(C)(C)C(=O)NCC(=O)NCC(=O)NC(CC(C)C)C(=O)NC(C)(C)C(=O)NCC(=O)NC(C(=O)NC(CO)CC(C)C)C(C)CC (stereo unspecified)

Outgoing:
1: 20.6 µM (inactive); 2: > 100 µM (inactive); 3: > 100 µM (inactive); 4: > 100 µM (inactive); 5: 4.53 µM (inactive); 6: > 100 µM (inactive); 7: > 100 µM (inactive); 8: 4.01 µM (inactive)

For every record below, what is its GI50?
1. CCc1n[nH]c(=O)n1N1C(=O)CCC1=O
2. COc1ccc(C=C2C(=O)NC(=S)NC2=O)c2ccccc12

Outgoing:
1: > 100 µM (inactive); 2: > 100 µM (inactive)

----------
Test system: SK-OV-3
Test: NCI tumour cell line growth inhibition, 48 h
The source made the active and inactive calls. Cut-off read from the data, not from the text of the source: active = GI50 up to about 1.1 µM and inactive = higher.
For each record, write down the corresponding GI50.

See these solved cases before continuing.
> print(dat)
                          smiles.record           meas.value
1          COC(=O)c1ccc(C=C(C#N)C#N)cc1  > 100 µM (inactive)
2         C=C1OC(c2ccccc2NC)=NC12CCCCC2  > 100 µM (inactive)
3  S=c1nc(N/N=C/c2cccs2)c2cn[nH]c2[nH]1  > 100 µM (inactive)

Give GI50 for each of the items listed below.
1. Cc1cc(C)c([O-])c(-[n+]2c(-c3ccccc3)cc(-c3ccccc3)cc2-c2ccccc2)c1
2. CC(=O)NNc1nc(C)c(C(/C=C/c2ccccc2O)=N/N=C(N)N)s1
3. CC[C@]1(O)C(=O)OCc2c1cc1n(c2=O)Cc2cc3c(N)cccc3nc2-1

Outgoing:
1. 13.7 µM (inactive)
2. > 100 µM (inactive)
3. > 100 µM (inactive)

Provenance of the data: ChEMBL document CHEMBL1201862
